# credit: the supplement of paper PMC10567573

Exercise: for every item that follows, state its recorded protein stability index.
B1: TSPAN10 (parent)
chain: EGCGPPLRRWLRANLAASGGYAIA

Variants of: B1
Assay: protein stability index of a GFP-peptide fusion (GPS, HEK-293T) (PSI 1-6); higher = more stable;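 note: lentivirally expressed fusions sorted by FACS into six bins by GFP to DsRed ratio, PSI derived from sequencing read proportions per bin multiplied by bin number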
Conditions: c terminus: a fixed tail appended
Give bare numbers.

Consider the worked cases shown below.
SEQUENCE CODE: EGCGPPLRRWLIANLAASGGYAIA [R12I]
RESULT NUMBER: 2.82

SEQUENCE CODE: EGCGPPLRRHLRANLAASGGYAIA [W10H]
RESULT NUMBER: 2.53

SEQUENCE CODE: EGCGPPLRRWLRANLAAWGGYAIA [S18W]
RESULT NUMBER: 2.06

SEQUENCE CODE: EGCGPPLRRGLRANLAASGGYAIA [W10G]
RESULT NUMBER: 3.35

Answer for every listed entry: what is its protein stability index? The entries follow.
1. EGCGPPLRRWLRANFAASGGYAIA [L15F]
2. EGCGPPLRRWLRANHAASGGYAIA [L15H]

Marked response:
[1.58, 2.62]

Answer for every listed entry: what is its protein stability index? The entries follow.
1. EGCGPPLRRWLRANLAASKGYAIA [G19K]
2. EGCGPPLRRWLRANLAASGGYAIC [A24C]
3. EGCGPPLRNWLRANLAASGGYAIA [R9N]
4. EGCGPRLRRWLRANLAASGGYAIA [P6R]
5. EGCGPPLRRWLRANLAASGGYAIV [A24V]

Marked response:
1.89
2.02
2.72
1.95
1.67
